Assay: MTT antiproliferative assay, ranges stated over several cell lines
Format: cell-based
Settings: human (tumor cell lines) and dog (MDCK1); abstract, range over cell lines; read-out: GI50 range (strong cytotoxic activity)
Readout Kind: GI50 at 72 h

# Molecule, GI50 at 72 h
measured = [
    ("Clc1ccc2c(Nc3cccc(-c4nc5ccccc5[nH]4)c3)ccnc2c1 [Compound 5d]", "0.4 to 8 µM"),
    ("O=C(NCCNc1ccnc2cc(Cl)ccc12)c1ccc(-c2nc3ccccc3[nH]2)cc1 [Compound 12d]", "0.4 to 8 µM"),
]

Please look up its GI50 at 72 h: Clc1ccc2c(N3CCN(c4ccc(-c5nc6ccccc6[nH]5)cc4)CC3)ccnc2c1 [Compound 8d] 0.4 to 8 µM

Hey, just so you know, these numbers are from paper PMC9866588.
